Record type: Ki measurement. Applies to: human 5-HT1A receptors (Homo sapiens)
Give bare numbers, in nM.

Could you report Ki for every entry in the following list?
1. Cc1ccc2c3c(ccc2n1)OC[C@H](CNCCCCc1c[nH]c2ccc(C#N)cc12)O3
2. Cc1ccc2c3c(ccc2n1)OC[C@H](CNCCCc1coc2ccccc12)O3
3. Cc1ccc2c3c(ccc2n1)OCC(CNC(C)CCc1c[nH]c2ccc(F)cc12)O3 (single isomer, unassigned; isomer a) [Example 11 Isomer A]
4. Cc1ccc2c3c(ccc2n1)OCC(CNCCCCn1ccc2ccc(F)cc21)O3 (stereo not drawn)
5. Cc1nc2ccc3c(c2o1)O[C@@H](CN(C)CCCc1c[nH]c2ccc(C#N)cc12)CO3
6. COc1ccc2[nH]cc(CCNCC3COc4ccc5nc(C)ccc5c4O3)c2c1 (stereo not drawn)

Outgoing:
0.85
0.35
1.68
0.06
35.3
2.03
